# ASSAY_NAME: small-molecule binders of probe aNOTCH2, primary screen, biochemical, small-molecule microarray, 635/667 nm fluorescence (AID 1121);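 also: score merges feature fluorescence read at 667 nm with its signal to noise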
# TEST_CONTEXT: higher = more signal
QUANTITY: composite z-score

State the recorded composite z-score for this entry: "CCN1C(=O)[C@H]2[C@H]3[C@H](O)[C@H](O)CC(=NOCC=C(C)CCC=C(C)C)[C@@H]3CC[C@H]2C1=O"
-0.118

State the recorded composite z-score for this entry: "C[C@@H]1C=CCC(=O)OC[C@H](C)C(=O)N[C@@H](Cc2ccccc2)C(=O)OC1"
-0.0995

State the recorded composite z-score for this entry: "CCN1C(=O)[C@H]2[C@H]3[C@H](O)[C@H](O)CC(=NO[C@@H](C)c4cc(-c5c(C)cc(C)cc5C)no4)[C@@H]3CC[C@H]2C1=O"
-0.0562

State the recorded composite z-score for this entry: C[C@]12CCC3c4ccc(OCC5CO5)cc4CCC3C1CC[C@@H]2O (stereo not given in full)
0.0365

State the recorded composite z-score for this entry: "COC(=O)[C@@H]1CC[C@H](C)[C@@H](c2ccc(Br)cc2)N1C(=O)C(F)(F)F"
-0.1

State the recorded composite z-score for this entry: "CC(CCN1CCCc2nc(C)c(C)cc21)=NOC[C@@H](C)[C@H](OCc1ccccc1)C(C)C"
-0.0878

----------
# ASSAY_TARGET: Luciferin 4-monooxygenase (Photinus pyralis) (UniProt P08659)
# Sequence (P08659 whole entry, looked up): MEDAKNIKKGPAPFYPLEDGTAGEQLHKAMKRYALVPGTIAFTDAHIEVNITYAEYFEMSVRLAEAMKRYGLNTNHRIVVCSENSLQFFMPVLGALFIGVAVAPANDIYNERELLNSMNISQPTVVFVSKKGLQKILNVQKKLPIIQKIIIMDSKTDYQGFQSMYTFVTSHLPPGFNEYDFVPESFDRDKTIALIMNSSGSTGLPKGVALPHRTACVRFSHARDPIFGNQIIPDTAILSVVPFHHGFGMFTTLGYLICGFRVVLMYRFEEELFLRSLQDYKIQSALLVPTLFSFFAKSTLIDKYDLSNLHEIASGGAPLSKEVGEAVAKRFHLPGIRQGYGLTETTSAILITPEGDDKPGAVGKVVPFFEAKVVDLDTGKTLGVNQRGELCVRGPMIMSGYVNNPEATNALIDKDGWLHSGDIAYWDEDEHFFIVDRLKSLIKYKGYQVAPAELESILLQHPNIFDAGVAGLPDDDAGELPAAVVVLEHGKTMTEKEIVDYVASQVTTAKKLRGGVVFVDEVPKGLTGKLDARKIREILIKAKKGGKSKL
# ASSAY_NAME: firefly luciferase enzyme inhibitors, primary screen, biochemical, luminescence, purified enzyme, 2006 set (AID 1141);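 also: cell-free assay with purified firefly luciferase at 100 ng per well in PBS; test concentration not given here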
# TEST_CONTEXT: SteadyGlo luminescence, 30 min, higher = more signal, called active from +8 up or from −8 down
Class boundaries, taken from values of z-score, are as follows: group A = under -0.01, group B = from -0.01 up to 0.5, group C = 0.5 and over

INSERT INTO assay_data (compound, group) VALUES
  ('COc1ccc(COC(=O)NN=C2C[C@@H](O)[C@@H](O)[C@@H]3[C@@H]4C(=O)N(C[C@@H]5CCCO5)C(=O)[C@@H]4CC[C@@H]23)cc1', 'group B'),
  ('COc1cccc([C@H]2Oc3ccc(OC)cc3C(=NOCC[C@@H]3C=C[C@H](OC(C)=O)[C@@H](COC(C)=O)O3)[C@@H]2O)c1', 'group C'),
  ('CO[C@@H]1COC(=O)[C@H](COCc2ccccc2)NC(=O)CC=C[C@@H](C)[C@H](OC)COC(=O)[C@@H](C)NC(=O)CC=C[C@H]1C', 'group A'),
  ('CO[C@@H]1COC(=O)CC=C[C@H](C)[C@H](OC)COC(=O)[C@@H]2CCCN2C(=O)CC=C[C@H]1C', 'group A'),
  ('CC(=O)OC[C@H]1O[C@H](CC=NO[C@H](C)c2cn([C@@H]3COC[C@H]3O)nn2)C=C[C@@H]1OC(C)=O', 'group A'),
  ('CCOC(=O)[C@H](Cc1ccccc1)NC(=O)CCC1CC(OC(=O)NCc2ccc3c(c2)OCO3)CC2(CCCC(COC(=O)NCCOc3ccccc3)O2)O1 (some centres undefined)', 'group B'),
  ('CC(=O)OC[C@H]1O[C@@H](ON=C(C)C)[C@H](OC(C)=O)[C@@H](OC(C)=O)[C@@H]1OC(C)=O', 'group B'),
  ('COC(=O)[C@H](C)NC(=O)CCC1CC(OC(=O)NCc2cccc3ccccc23)CC2(CCCC(COC(=O)NCc3cccc(C(F)(F)F)c3)O2)O1 (some centres undefined)', 'group A'),
  ('CCC1=NOC(CCC2CC(OC(=O)NCc3cccc4c3OCO4)CC3(CCCC(COC(=O)NCCc4ccc(Cl)cc4)O3)O2)C1 (centres undefined)', 'group C'),
  ('C#CCCCON=C1C[C@@H](O)[C@@H](O)[C@@H]2[C@@H]3C(=O)N(C4CCCCC4)C(=O)[C@@H]3CC[C@@H]12', 'group A');

Where would CC(CCN1CCc2nc(-c3ccccc3)c(-c3ccccc3)cc2C1)=NOC(C)CN1CCCc2nc(C)c(C)cc21 (centres undefined) land among the classes by reported z-score?
group B

Where would "O=C(NN=C1C[C@@H](O)[C@@H](O)[C@@H]2[C@@H]3C(=O)N(Cc4ccc5c(c4)OCO5)C(=O)[C@@H]3CC[C@@H]12)OCc1ccccc1" land among the classes by reported z-score?
group C

Where would COC(=O)[C@H](C)NC(=O)CCC1CC(OC(=O)NCc2ccc3c(c2)OCO3)CC2(CCCC(COC(=O)NCCc3ccc(Cl)cc3)O2)O1 (some centres undefined) land among the classes by reported z-score?
group C

Data credit: PubChem BioAssay
